System: Caco-2
Test: cell viability relative to DMSO; higher = less toxic
Details: 72 h; 10 nM
Below, each entry is listed with its recorded cell viability.
The reply should contain only the number, in %.

Examples with their reported cell viability follow.
> print(dat)
                                   compound  target.or.test.system  recorded.endpoint  units.label  numeric.result
1  COc1cc2c(cc1OC)CN(CCc1ccc(NC(=O)c3cc(OC)c(OC)cc3NC(=O)c3cnc4ccccc4c3)cc1)CC2                 Caco-2     cell viability            %            94.2
2              NCCCCCNCC12CC3CC(CC(C3)C1)C2                 Caco-2     cell viability            %            97.4
3  CC(=O)OCC1=C(C(=O)O)N2C(=O)[C@@H](N)[C@H]2SC1                 Caco-2     cell viability            %             106

// lookup cell viability for CCN(CC)Cc1cc(Nc2ccnc3cc(Cl)ccc23)ccc1O
92.1

Quick check: cell viability of O=C(Nc1c(Cl)cncc1Cl)c1ccc(OC(F)F)c(OCC2CC2)c1 ?
101

Give its cell viability value. Item: Cc1ccnc(NS(=O)(=O)c2ccc(N)cc2)n1
89.8

Recorded cell viability for CC(C)(C#N)c1ccc(N2C(=O)OCc3cnc4ccc(-c5cnc6ccccc6c5)cc4c32)cc1 , please?
108

Which cell viability reading was recorded for the compound N[C@@H](C(=O)O)c1ccc(C(=O)O)c(O)c1 (racemic) [4-carboxy-3-hydroxyphenylglycine-(RS)] ?
97.4
